Measured survival at 50 µM, listed per entry.
# System: Toxoplasma gondii
# assay name: Antitoxoplasma activity against wild type Toxoplasma gondii RH assessed as survival at 50 uM after 18 hrs by [5,6-[…]]uracil incorporation assay
# Assay type: functional
Record the value in %, omitting the unit from your answer.

Readout survival at 50 µM for "N#Cc1ccc(CSc2ncnc3c2ccn3[C@@H]2O[C@H](CO)[C@@H](O)[C@H]2O)cc1" , test system Toxoplasma gondii, was 0

Readout survival at 50 µM for "COc1ccc(CSc2ncnc3c2ccn3[C@@H]2O[C@H](CO)[C@@H](O)[C@H]2O)cc1" , test system Toxoplasma gondii, was 0

Readout survival at 50 µM for "Nc1ccc(S(=O)(=O)Nc2ncccn2)cc1" , test system Toxoplasma gondii, was 46.4

Readout survival at 50 µM for "CCc1nc(N)nc(N)c1-c1ccc(Cl)cc1" , test system Toxoplasma gondii, was 5.8

----------
Measured viability at 48 h, 5 µM, listed per entry.
# assay name: Toxicity against human foreskin fibroblasts at 5 uM after 48 hrs by MTT method
# Assay type: cell-based, Fibroblast
# condition summary: read-out: Survival
Record the value in %, omitting the unit from your answer.

Worked cases, answers included:
- smiles record: "COc1ccc(CSc2ncnc3c2ccn3[C@@H]2O[C@H](CO)[C@@H](O)[C@H]2O)cc1"
  units of measure: "%"
  test value: 100
- smiles record: "N#Cc1ccc(CSc2ncnc3c2ccn3[C@@H]2O[C@H](CO)[C@@H](O)[C@H]2O)cc1"
  units of measure: "%"
  test value: 100
- smiles record: "CCc1nc(N)nc(N)c1-c1ccc(Cl)cc1"
  units of measure: "%"
  test value: 101

As a next step, examine the compound that follows.
Item: "Nc1ccc(S(=O)(=O)Nc2ncccn2)cc1" | viability at 48 h, 5 µM: 98.2

----------
# Tested on: Toxoplasma gondii
# assay name: Antitoxoplasma activity against wild type Toxoplasma gondii RH assessed as survival at 25 uM after 18 hrs by [5,6-[…]]uracil incorporation assay
# Type: functional
Measured survival at 25 µM, listed per entry.
Answer with the number, then the unit.

Worked cases, answers included:
- smiles record: "Nc1ccc(S(=O)(=O)Nc2ncccn2)cc1"
  test value: "59.8%"
- smiles record: "CCc1nc(N)nc(N)c1-c1ccc(Cl)cc1"
  test value: "13.8%"
- smiles record: "N#Cc1ccc(CSc2ncnc3c2ccn3[C@@H]2O[C@H](CO)[C@@H](O)[C@H]2O)cc1"
  test value: "0%"

As a next step, examine the compound that follows.
Item: "COc1ccc(CSc2ncnc3c2ccn3[C@@H]2O[C@H](CO)[C@@H](O)[C@H]2O)cc1" | survival at 25 µM: 0%

----------
Measured viability at 48 h, 10 µM, listed per entry.
# assay name: Toxicity against human foreskin fibroblasts at 10 uM after 48 hrs by MTT method
# Type: cell-based, Fibroblast
# condition summary: read-out: Survival
Record the value in %, omitting the unit from your answer.

- compound: "Nc1ccc(S(=O)(=O)Nc2ncccn2)cc1 [SULFADIAZINE]"
  viability at 48 h, 10 µM (%): 99.8
- compound: "COc1ccc(CSc2ncnc3c2ccn3[C@@H]2O[C@H](CO)[C@@H](O)[C@H]2O)cc1"
  viability at 48 h, 10 µM (%): 100
- compound: "N#Cc1ccc(CSc2ncnc3c2ccn3[C@@H]2O[C@H](CO)[C@@H](O)[C@H]2O)cc1"
  viability at 48 h, 10 µM (%): 100

As a next step, examine the compound that follows.
Item: CCc1nc(N)nc(N)c1-c1ccc(Cl)cc1 [PYRIMETHAMINE] | viability at 48 h, 10 µM: 100

Reference source: ChEMBL document CHEMBL1155031
